- Test system: KB-3-1
- TEST: Cytotoxic Profiling of Annotated Libraries Using Quantitative High-Throughput Screening (AID 1296008); also: % is scaled to controls: 0 for no effect and ±100 for the full control effect; nearly all actives have a fitted effect of over 60% in size
- CONDITION NOTES: Five cell lines viability, CellTiter-Glo ATP luminescence, 48-72 h; hits give low values
Results filed as inconclusive are left out.
# key: entry, value: max response
Give the value, in units of %, as a plain number.

COMPOUND: Cc1ccc(COC(=O)N2CC[C@@H](CNc3ncccn3)[C@@H](F)C2)cc1
ASSAYED TARGET: KB-3-1
UNITS TEXT: %
max response: -17.2
//
COMPOUND: CS(=O)(=O)c1ccccc1N1CCN(c2nc3c(c(=O)[nH]2)CSCC3)CC1
ASSAYED TARGET: KB-3-1
UNITS TEXT: %
max response: -11.7
//
COMPOUND: COc1cc(O)cc(C)c1C(=O)OC1C(CO)OC(n2ccc(=O)[nH]c2=O)C1OC(C)=O (stereo not drawn)
ASSAYED TARGET: KB-3-1
UNITS TEXT: %
max response: 8.59
//
COMPOUND: COc1ccc(C2C(C(=O)O)C(C(=O)O)C2c2ccc(OC)cc2O[C@@H]2O[C@H](CO)[C@@H](O)[C@H](O)[C@H]2O)c(O[C@@H]2O[C@H](CO)[C@@H](O)[C@H](O)[C@H]2O)c1 (stereo partly drawn)
ASSAYED TARGET: KB-3-1
UNITS TEXT: %
max response: -1.86
//
COMPOUND: CC(=O)OC1CC(C(C)(C)O)OC2CCC3(C)OC4=C(C(=O)C=C5C(C)C(OC(C)=O)C6(C)C(C)OC546)C(O)C3C12C (stereo not drawn)
ASSAYED TARGET: KB-3-1
UNITS TEXT: %
max response: 5.34
//
COMPOUND: O=C(O)[C@H]1Cc2ccccc2CN1
ASSAYED TARGET: KB-3-1
UNITS TEXT: %
max response: 0.759

Item: `OC[C@H]1O[C@@H](O[C@H]2[C@H](O)[C@@H](CO)O[C@@H](OCc3ccccc3)[C@@H]2O[C@@H]2OC[C@](O)(CO)[C@H]2O)[C@H](O)[C@@H](O)[C@@H]1O` | max response: 7.58

Item: CC12CC(c3ccoc3)OC(=O)C1CCC1(C)C2CCC(O)C1(C)O (stereo not drawn) | max response: 6.59

---

# key: entry, value: max response
- Test system: NIH3T3
- TEST: Cytotoxic Profiling of Annotated Libraries Using Quantitative High-Throughput Screening (AID 1296008); also: % is scaled to controls: 0 for no effect and ±100 for the full control effect; nearly all actives have a fitted effect of over 60% in size
- CONDITION NOTES: Five cell lines viability, CellTiter-Glo ATP luminescence, 48-72 h; hits give low values
Inconclusive results are not listed.
Give the value, in units of %, as a plain number.

Known results for compounds:
COMPOUND: COc1cc(C)c(C(=O)O[C@@H]2[C@H](O)[C@@H](CO)O[C@H]2n2ccc(=O)[nH]c2=O)c(OC)c1
max response (%): 2.52
--
COMPOUND: CC1=CC(=O)CC(C)(C)C1CCC(C)O[C@@H]1O[C@H](CO)[C@@H](O)[C@H](O)[C@H]1O (some centres undefined)
max response (%): 0.902
--
COMPOUND: c1ccc2c(Nc3nnc(-c4ccncc4)s3)cccc2c1
max response (%): -0.252

Item: `C=C(CO)C(=O)O[C@H]1C[C@@]23O[C@@H]2CC/C(=C/[C@H]2OC(=O)C(=C)[C@H]12)CO[C@H]3O` | max response: 2.84

Item: `CC1(C)CC=C(C#Cc2ccccc2)c2cc(/C=C/c3ccc(C(=O)O)cc3)ccc21` | max response: -4.98

Item: C[C@H]1[C@H](C)CC[C@]2(C(=O)O)CC[C@]3(C(=O)O)C(=CCC4[C@@]5(C)CC[C@H](O[C@@H]6O[C@@H](C)[C@H](O)[C@@H](O)[C@H]6O)C(C)(C)C5CC[C@]43C)[C@H]12 (some centres undefined) | max response: 4.82

---

- Test system: HaCat
- TEST: Cytotoxic Profiling of Annotated Libraries Using Quantitative High-Throughput Screening (AID 1296008); also: % is scaled to controls: 0 for no effect and ±100 for the full control effect; nearly all actives have a fitted effect of over 60% in size
- CONDITION NOTES: Five cell lines viability, CellTiter-Glo ATP luminescence, 48-72 h; hits give low values
Inconclusive results are not listed.
PROPERTY LABEL: max response (%)
Give the value, in units of %, as a plain number.

Known results for compounds:
COMPOUND: C[C@]1(OC(=O)/C=C\c2ccc(O)cc2)C[C@@H](O)[C@]2(O)C=CO[C@@H](O[C@@H]3O[C@H](CO)[C@@H](O)[C@H](O)[C@H]3O)C12 (stereo partly specified)
ASSAYED TARGET: HaCat
UNITS TEXT: %
REPORTED MEASUREMENT: -23.9

COMPOUND: CN(C)C(=O)C(O)C(Cc1ccccc1)NC(=O)c1cc2cc(Cl)ccc2[nH]1 (stereo unspecified)
ASSAYED TARGET: HaCat
UNITS TEXT: %
REPORTED MEASUREMENT: -1.1

COMPOUND: COc1ccc(CCC(=O)O)c(O[C@@H]2O[C@H](CO)[C@@H](O)[C@H](O)[C@H]2O)c1
ASSAYED TARGET: HaCat
UNITS TEXT: %
REPORTED MEASUREMENT: 3.93

COMPOUND: O=C(COCC(=O)N1CCN(C(c2ccccc2)c2ccccc2)CC1)Nc1ccc(Cl)cc1C(=O)O
ASSAYED TARGET: HaCat
UNITS TEXT: %
REPORTED MEASUREMENT: -6.79

Item: CC(C)C1(O)NC(=O)C(CC2(O)c3ccccc3N3C(=O)C(C)(C)NC32)n2c1nc1ccccc1c2=O (stereo unspecified) | max response: -2.62

---

- Tested on: SKOV3
- TEST: Primary qHTS to identify gynecologic anti-cancer compounds using libraries of approved drugs and bioactive compounds (AID 1345084); also: % is scaled to controls: 0 for no effect and ±100 for the full control effect; nearly all actives have a fitted effect of over 55% in size
- CONDITION NOTES: Gynecologic cancer cell panel viability, ATPlite luminescence, 48 h; series mostly up to 57.5 µM
Results filed as inconclusive are left out. Activity calls are given as the source filed them. Calls come from the whole dose curve; as a rule, active = well fitted cell-killing curve with a large enough effect; inconclusive = small, poorly fitted or top-dose-only effect, or effect the other way; inactive = flat fitted curve, though single readings scatter.
PROPERTY LABEL: activity change, negative = cytotoxicity

COMPOUND: C=C1CC[C@]2(C(=O)O[C@@H]3O[C@H](CO)[C@@H](O)[C@H](O)[C@H]3O)CC[C@]3(C)C(=CCC4[C@@]5(C)C[C@H](O)[C@@H](O[C@@H]6O[C@H](C(=O)O)[C@@H](O)[C@H](O)[C@H]6O)[C@](C)(C=O)C5CC[C@]43C)C2C1 (stereo partly specified)
activity change, negative = cytotoxicity: -9% [at 11.6 µM] (inactive)

COMPOUND: COc1cc(-c2ccc(O)cc2)c(OC)c(O)c1C1=CC(=O)OC1CC(=O)O (stereo unspecified)
activity change, negative = cytotoxicity: inactive

COMPOUND: CC1OC(OC2C(OC3C(O[C@H]4CC[C@@]5(C)C(CC[C@]6(C)C5C(=O)CC5=C7CC(C)(C)CC(O)[C@]7(C)CC[C@]56C)C4(C)C)OC(C(=O)O)C(O)C3O)OCC(O)C2O)C(O)C(O)C1O (stereo partly specified)
activity change, negative = cytotoxicity: 29.3% [at 11.6 µM] (inactive)

COMPOUND: COc1cc(/C=C/C(=O)O[C@H]2[C@H](O)[C@@H](CO)O[C@@]2(CO)O[C@H]2O[C@H](CO)[C@@H](O)[C@H](O)[C@H]2O)cc(OC)c1O
activity change, negative = cytotoxicity: inactive

Test item `COc1ccc(/C=C/C(N)=O)cc1OC` ; SKOV3; reported activity change, negative = cytotoxicity was inactive

Test item `COc1ccc(/C=C/C(=O)O[C@@H]2[C@@H](O)[C@@H](O)[C@H](O[C@H]3[C@@H]4C=CO[C@@H](O[C@@H]5O[C@H](CO)[C@@H](O)[C@H](O)[C@H]5O)[C@@H]4[C@@]4(CO)O[C@@H]34)O[C@H]2C)cc1` ; SKOV3; reported activity change, negative = cytotoxicity was inactive

Test item C=C(CC/C=C(\C)C(=O)O)C1(O)CC=C(C)CC1 (stereo unspecified) ; SKOV3; reported activity change, negative = cytotoxicity was inactive

Test item COc1cc(C)c(C(=O)NC2C(C)OC(OC3CCC(C)C4C3C=C(C)C3/C(C)=C\CC/C(C)=C/C5(C)C=C(C(=O)O)C(C)CC56OC(=O)/C(=C(\O)C34C)C6=O)C(O)C2(C)O)c(O)c1 (stereo unspecified) ; SKOV3; reported activity change, negative = cytotoxicity was -10.1% [at 11.6 µM] (inactive)

Test item CC1(C)CC[C@]2(C(=O)O)CC[C@]3(C)C(=CCC4[C@@]5(C)CC[C@H](O[C@@H]6O[C@H](C(=O)O)[C@@H](O)[C@H](O)[C@H]6O)C(C)(C)C5CC[C@]43C)C2C1 (stereo partly specified) ; SKOV3; reported activity change, negative = cytotoxicity was inactive

---

- TEST: P-glycoprotein substrates identified in KB-8-5-11 adenocarcinoma cell line, qHTS therapeutic library screen (AID 1346987); also: nearly all actives have a fitted effect of over 65% in size; as to activity change, negative = cytotoxicity: % is scaled to controls: 0 for no effect and ±100 for the full control effect
- CONDITION NOTES: KB-8-5-11 (P-gp overexpressing) viability, CellTiter-Glo, 72 h; series mostly up to 44.5 µM
- Description: The ATP-binding cassette transporters P-glycoprotein (P-gp) is known to limit brain penetration of many chemotherapy drugs. […] All cell lines were plated into 1536-well plates at 500 cells/well in 5 uL media. […] CellTiter-Glo reagent (Promega) was dispensed into the wells, incubated for 5 min and luminescence was read on a ViewLux instrument (Perkin-Elmer). […]
Records with an inconclusive call do not appear. Calls of active or inactive are those of the source. Calls come from the whole dose curve; as a rule, active = well fitted inhibition curve with a large enough effect; inconclusive = small, poorly fitted or top-dose-only effect; inactive = flat fitted curve, though single readings scatter.
PROPERTY LABEL: activity change, negative = cytotoxicity

Known results for molecules:
MOLECULE: CCC(C)(C)C1CCc2c(sc(NC(=O)c3ccc(Br)cc3)c2C#N)C1 (centres undefined)
activity change, negative = cytotoxicity: inactive
//
MOLECULE: CC1(C)C2CCC1(C)C(OC(=O)C(O)(CC(=O)O)CC(=O)O)C2 (centres undefined)
activity change, negative = cytotoxicity: inactive
//
MOLECULE: COc1ccc2[nH]c(S(=O)Cc3ncc(C)c(OC)c3C)nc2c1 (centres undefined)
activity change, negative = cytotoxicity: inactive
//
MOLECULE: COC(=O)[C@H](Cc1ccc([N+](=O)[O-])cc1)NC(=O)c1cccc2ccccc12
activity change, negative = cytotoxicity: inactive
//
MOLECULE: COc1cc(/C=C/CO[C@@H]2O[C@H](CO)[C@@H](O)[C@H](O)[C@H]2O)cc(OC)c1O[C@@H]1O[C@H](CO)[C@@H](O)[C@H](O)[C@H]1O
activity change, negative = cytotoxicity: inactive

Item: `COc1cc(C(C)=O)ccc1O[C@@H]1O[C@H](CO)[C@@H](O)[C@H](O)[C@H]1O` | activity change, negative = cytotoxicity: inactive
